Test system: TGR in newly transformed schistosomula (NTS)
Test: TGR inhibition in NTS with TRFS-Green fluorescent probe;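 note: untreated reference is NTS exposed to TRFS-Green probe alone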
Format: cell-based, S. mansoni
Conditions: NTS, 5hr, 30 µM
PARAMETER: TGR inhibition visualized by TRFS-Green, Average
Note: the reply should be a number with no unit written.

Here is how some molecules turned out for TGR inhibition visualized by TRFS-Green, Average.
In [3]: df
Out[3]:
                         chemical_structure  value_measured
0  C[C@@H]1[C@H]2C[C@@H](C[C@H]1NCc1nc3ccccc3n1C1CCCCCC1)C2(C)C           12834
1  CCc1ccccc1-c1nc(CN[C@@H]2C[C@@H]3C[C@H]([C@H]2C)C3(C)C)c(C)o1           14810
2  Cc1oc(-c2ccc3c(c2)OCO3)nc1CN[C@@H]1C[C@@H]2C[C@H]([C@H]1C)C2(C)C         16893.5

Task item: Value lookup for TGR inhibition visualized by TRFS-Green, Average; key = Cc1oc(C2CCCCC2)nc1C(=O)N[C@@H]1C[C@@H]2C[C@H]([C@H]1C)C2(C)C
Reply: 29603

Task item: # iterate: Cc1oc(C2CCCCC2)nc1CN[C@@H]1C[C@@H]2C[C@H]([C@H]1C)C2(C)C
Reply: 21898.5

Task item: Moving on to C[C@@H]1[C@H]2C[C@@H](C[C@H]1NCc1nc3ccccc3n1C)C2(C)C
Reply: 33178.5
